Reference source: ChEMBL document CHEMBL4184110

Catalogue of IC50 values
Biological target: Peroxisome proliferator-activated receptor delta (Homo sapiens)
Sequence (Q03181 whole entry, the tested form may be a part): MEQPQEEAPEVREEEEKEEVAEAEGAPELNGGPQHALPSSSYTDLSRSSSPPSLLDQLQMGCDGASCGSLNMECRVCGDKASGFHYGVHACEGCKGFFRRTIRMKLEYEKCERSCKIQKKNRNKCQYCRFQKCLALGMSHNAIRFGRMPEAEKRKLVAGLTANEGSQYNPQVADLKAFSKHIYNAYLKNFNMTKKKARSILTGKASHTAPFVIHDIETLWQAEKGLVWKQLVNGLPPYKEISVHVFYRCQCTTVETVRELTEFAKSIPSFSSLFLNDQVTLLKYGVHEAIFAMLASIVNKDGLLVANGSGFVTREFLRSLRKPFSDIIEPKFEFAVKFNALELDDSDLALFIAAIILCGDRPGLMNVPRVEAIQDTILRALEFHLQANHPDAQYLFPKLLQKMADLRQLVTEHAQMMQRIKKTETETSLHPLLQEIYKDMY
Assay: Antagonist activity at CMV-fused PPARdelta-LBD-GAL4-DBD (unknown origin) expressed in HEK293T cells assessed as inhibition of GW0742-induced receptor transactivation after 16 hrs by bright-Glo luciferase reporter gene assay
READOUT KIND: IC50 (µM)

>>> print(df.to_string())
                                test_smiles                              study_system  readout_kind  measured_value
0  COC(=O)c1cccc(OCc2oc(-c3ccccc3OC)nc2C)c1  Peroxisome proliferator-activated receptor delta (Homo sapiens)          IC50            10.9
1  COC(=O)Cc1ccc(OCc2oc(-c3cccc(OC)c3)nc2C)cc1  Peroxisome proliferator-activated receptor delta (Homo sapiens)          IC50            11.3
2  COC(=O)c1ccc(OCc2oc(-c3cccc(OC)c3)nc2C)cc1  Peroxisome proliferator-activated receptor delta (Homo sapiens)          IC50            10.9
3  COC(=O)Cc1ccc(OCc2oc(-c3ccccc3OC)nc2C)cc1  Peroxisome proliferator-activated receptor delta (Homo sapiens)          IC50             6.6

====

Biological target: Peroxisome proliferator-activated receptor alpha (Homo sapiens, UniProt Q07869)
Sequence (Q07869 whole entry, the tested form may be a part): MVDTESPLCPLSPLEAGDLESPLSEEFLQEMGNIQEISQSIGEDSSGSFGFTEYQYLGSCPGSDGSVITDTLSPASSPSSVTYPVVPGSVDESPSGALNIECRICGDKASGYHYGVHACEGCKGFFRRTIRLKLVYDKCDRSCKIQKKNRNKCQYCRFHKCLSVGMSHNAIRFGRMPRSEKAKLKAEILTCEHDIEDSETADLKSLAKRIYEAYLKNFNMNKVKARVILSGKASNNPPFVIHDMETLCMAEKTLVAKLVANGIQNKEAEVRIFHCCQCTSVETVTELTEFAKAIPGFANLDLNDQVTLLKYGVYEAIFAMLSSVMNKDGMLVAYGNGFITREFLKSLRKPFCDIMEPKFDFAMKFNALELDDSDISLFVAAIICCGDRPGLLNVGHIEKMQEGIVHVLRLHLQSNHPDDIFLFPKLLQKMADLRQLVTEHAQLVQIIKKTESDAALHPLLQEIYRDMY
Test: Antagonist activity at CMV-fused PPARalpha-LBD-GAL4-DBD (unknown origin) expressed in HEK293T cells assessed as inhibition of GW7647-induced receptor transactivation after 16 hrs by bright-Glo luciferase reporter gene assay
pIC50: −log10 of the molar value.
READOUT KIND: pIC50

                                test_smiles  measured_value
0  COC(=O)c1cccc(OCc2oc(-c3ccccc3OC)nc2C)c1            5.18
1  COC(=O)Cc1ccc(OCc2oc(-c3ccccc3OC)nc2C)cc1            5.10
2  COC(=O)c1ccc(OCc2oc(-c3cccc(OC)c3)nc2C)cc1            5.46
3  COC(=O)Cc1ccc(OCc2oc(-c3cccc(OC)c3)nc2C)cc1            5.72

====

Measured Activity, listed per entry.
Target: Peroxisome proliferator-activated receptor delta (Homo sapiens) (UniProt Q03181)
Assay: Transactivation of CMV-fused PPARdelta-LBD-GAL4-DBD (unknown origin) expressed in HEK293T cells at 100 uM by luciferase reporter gene assay relative to GW0742
Format: cell-based
READOUT KIND: Activity

                                test_smiles  measured_value
0  COc1ccccc1-c1nc(C)c(COc2cccc(C(=O)O)c2)o1             22%
1  COc1cccc(-c2nc(C)c(COc3ccc(CC(=O)O)cc3)o2)c1            8.5%
2  COc1ccccc1-c1nc(C)c(COc2ccc(C(=O)O)cc2)o1             16%
3  COc1cccc(-c2nc(C)c(COc3ccc(CCC(=O)O)cc3)o2)c1           13.7%
4  COC(=O)CCc1ccc(OCc2oc(-c3cccc(OC)c3)nc2C)cc1            7.7%
5  COc1cccc(-c2nc(C)c(COc3ccc(C(=O)O)cc3)o2)c1            2.1%
6  COc1ccccc1-c1nc(C)c(COc2ccc(CCC(=O)O)cc2)o1             30%
7  COc1ccccc1-c1nc(C)c(COc2ccc(CC(=O)O)cc2)o1             48%
